TARGET: human HSL (Homo sapiens)
Construct: overlapping PCR to generate a full length human HSL ORF with a 3′-His6 tag; His6 (C)
TEST DESCRIPTION: Human Hormone-Sensitive Lipase (HSL) Enzyme Inhibition Assay
APPLIED CONDITIONS: colorimetric assay, 2,3-dimercapto-1-propanol tributyrate (DMPT) substrate, 37° C. for 20 minutes, absorbance at 405 nm; read-out: HSL hum IC50
Simple rule here: IC50 less than 0.08 µM is MET, otherwise NOT MET.

Before answering, review these 3 worked examples.
| MOLECULE | CLASS LABEL |
| --- | --- |
| COc1cccc(CCN2CCC3(CCN(S(=O)(=O)c4ccccc4Cl)CC3)C2=O)c1 | NOT MET |
| O=C1N(c2ccc(OC(F)(F)F)cc2)CCC12CCN(S(=O)(=O)c1ccc(Cl)nc1)CC2 | NOT MET |
| O=C1N(c2ccc(C(O)C(F)(F)F)cc2)CCC12CCN(S(=O)(=O)c1ccccc1OC(F)(F)F)CC2 (stereo not shown) | MET |

Find out if reported IC50 for "Cc1oncc1S(=O)(=O)N1CCC2(CCN(c3ccc(OC(F)(F)F)cc3)C2=O)CC1" is less than 0.08 µM NOT MET

Another: "O=C1N(c2ccc(Cl)nc2)CCC12CCN(S(=O)(=O)c1ccccc1)CC2" NOT MET

Another: "CC(C)CS(=O)(=O)N1CCC2(CCN(c3ccc(OS(=O)(=O)C4CC4)cc3)C2=O)CC1" NOT MET

Another: "N#CCc1ccc(N2CCC3(CCN(S(=O)(=O)c4ccccc4Cl)CC3)C2=O)cc1" NOT MET

Another: "CN(Cc1ccccc1)S(=O)(=O)N1CCC2(CCN(c3ccc(OC(F)(F)F)cc3)C2=O)CC1" MET

Another: COC(CS(=O)(=O)N1CCC2(CCN(c3ccc(OC(F)(F)F)cc3)C2=O)CC1)C1CC1 (stereo not shown) MET

###

TARGET: human HSL (Homo sapiens, UniProt Q05469)
Construct: overlapping PCR to generate a full length human HSL ORF with a 3′-His6 tag; His6 (C)
TEST DESCRIPTION: Human Hormone-Sensitive Lipase (HSL) Enzyme Inhibition Assay
APPLIED CONDITIONS: colorimetric assay, 2,3-dimercapto-1-propanol tributyrate (DMPT) substrate, 37° C. for 20 minutes, absorbance at 405 nm; read-out: HSL hum IC50
Would you mind telling me the reported IC50 of each entry?
Answers are plain numbers, in nM.

Below: 6 compounds and their reported IC50.
| COMPOUND | ENDPOINT UNIT | REPORTED RESULT |
| --- | --- | --- |
| CCCN(C)C(=O)N1CCC2(CC1)CCN(c1ccc(OC(F)(F)F)cc1)C2=O [Example 253] | nM | 140 |
| CNc1ncccc1S(=O)(=O)N1CCC2(CCN(c3ccc(OC(F)(F)F)cc3)C2=O)CC1 [Example 189] | nM | 30 |
| CCC(C)c1ccc(N2CCC3(CCN(S(=O)(=O)c4cccs4)CC3)C2=O)cc1 (centres unmarked) [Example 43] | nM | 40 |
| CC(C)(C)CS(=O)(=O)N1CCC2(CCN(c3ccc(OCCC(F)(F)F)cc3)C2=O)CC1 [Example 139] | nM | 310 |
| O=C1N(c2ccc(OC(F)(F)F)cc2)CCC12CCN(S(=O)(=O)c1ccccn1)CC2 [Example 201] | nM | 50 |
| O=C1N(c2ccc(OC(F)(F)F)cc2)CCC12CCN(S(=O)(=O)NCc1ccccc1)CC2 [Example 287] | nM | 50 |

State the recorded IC50 for every item in the following list.
1. CN(C)c1ncccc1S(=O)(=O)N1CCC2(CCN(c3ccc(OC(F)(F)F)cc3)C2=O)CC1 [Example 190]
2. CCN(CC)C(=O)N1CCC2(CC1)CCN(c1ccc(OC(F)(F)F)cc1)C2=O [Example 266]

[20, 330]

###

TARGET: human HSL (Homo sapiens, UniProt Q05469)
Construct: overlapping PCR to generate a full length human HSL ORF with a 3′-His6 tag; His6 (C)
TEST DESCRIPTION: Human Hormone-Sensitive Lipase (HSL) Enzyme Inhibition Assay
APPLIED CONDITIONS: colorimetric assay, 2,3-dimercapto-1-propanol tributyrate (DMPT) substrate, 37° C. for 20 minutes, absorbance at 405 nm; read-out: HSL hum IC50
pIC50: −log10 of the molar value.
Classification field: criterion met = pIC50 at or over 7; criterion not met = pIC50 under 7.

| MOLECULE | CLASS LABEL |
| --- | --- |
| O=C1N(c2ccc(OS(=O)(=O)C3CC3)cc2)CCC12CCN(S(=O)(=O)c1ccccc1OC(F)(F)F)CC2 | criterion met |
| Cc1nn(C)c(C)c1S(=O)(=O)N1CCC2(CCN(c3ccc(OC(F)(F)F)cc3)C2=O)CC1 | criterion met |
| CCCCOc1ccc(N2CCC3(CCN(S(=O)(=O)c4ccccc4OC(F)(F)F)CC3)C2=O)cc1 | criterion met |
| O=C1N(c2ccc(C3(F)COC3)cc2)CCC12CCN(S(=O)(=O)c1ccccc1Cl)CC2 | criterion met |
| O=C1N(c2ccc(OC(F)(F)F)cc2)CCC12CCN(S(=O)(=O)c1cccs1)CC2 | criterion met |

Given "CCOCc1ccc(N2CCC3(CCN(S(=O)(=O)c4ccccc4Cl)CC3)C2=O)cc1" , state whether its pIC50 is at least 7. criterion met

Another: "O=C1N(c2ccc(OC(F)(F)F)cc2)CCCC12CCN(S(=O)(=O)c1ccccc1)CC2" criterion met

Another: "CCS(=O)(=O)c1ccc(N2CCC3(CCN(S(=O)(=O)CC(C)(C)C)CC3)C2=O)cc1" criterion not met

Another: "CCc1ccc(N2CCC3(CCN(S(=O)(=O)c4ccccc4S(C)(=O)=O)CC3)C2=O)cc1" criterion not met

Another: "CN(C(=O)N1CCC2(CC1)CCN(c1ccc(OC(F)(F)F)cc1)C2=O)c1ccc(Cl)cc1" criterion met

Another: "O=C1N(c2ccc3c(c2)OC(F)(F)O3)CCC12CCN(S(=O)(=O)c1ccccc1Cl)CC2" criterion met

Another: "O=C1N(c2ccc(OCC(F)(F)F)cc2)CCC12CCN(S(=O)(=O)c1cccnc1)CC2" criterion met

Another: "CC(C)Oc1ccc(N2CCC3(CCN(S(=O)(=O)CC4CCC4)CC3)C2=O)cc1" criterion not met

Another: "O=C1N(c2ccc(OC(F)(F)F)cc2)CCC12CCN(S(=O)(=O)c1ccncc1)CC2" criterion not met

Another: O=C1N(c2ccc(C(O)C(F)(F)F)cc2)CCC12CCN(S(=O)(=O)c1ccccc1Cl)CC2 (stereo not shown) criterion met

Another: "CS(=O)(=O)c1ccc(N2CCC3(CCN(S(=O)(=O)c4ccccc4Cl)CC3)C2=O)cc1" criterion met

Another: "CS(=O)(=O)Oc1ccc(N2CCC3(CCN(S(=O)(=O)c4cccs4)CC3)C2=O)cc1" criterion met

Another: "O=C1N(c2cc(C(F)(F)F)ccc2Cl)CCC12CCN(S(=O)(=O)c1ccccc1Cl)CC2" criterion not met

###

TARGET: human HSL (Homo sapiens)
Construct: overlapping PCR to generate a full length human HSL ORF with a 3′-His6 tag; His6 (C)
Sequence (Q05469 1-1076): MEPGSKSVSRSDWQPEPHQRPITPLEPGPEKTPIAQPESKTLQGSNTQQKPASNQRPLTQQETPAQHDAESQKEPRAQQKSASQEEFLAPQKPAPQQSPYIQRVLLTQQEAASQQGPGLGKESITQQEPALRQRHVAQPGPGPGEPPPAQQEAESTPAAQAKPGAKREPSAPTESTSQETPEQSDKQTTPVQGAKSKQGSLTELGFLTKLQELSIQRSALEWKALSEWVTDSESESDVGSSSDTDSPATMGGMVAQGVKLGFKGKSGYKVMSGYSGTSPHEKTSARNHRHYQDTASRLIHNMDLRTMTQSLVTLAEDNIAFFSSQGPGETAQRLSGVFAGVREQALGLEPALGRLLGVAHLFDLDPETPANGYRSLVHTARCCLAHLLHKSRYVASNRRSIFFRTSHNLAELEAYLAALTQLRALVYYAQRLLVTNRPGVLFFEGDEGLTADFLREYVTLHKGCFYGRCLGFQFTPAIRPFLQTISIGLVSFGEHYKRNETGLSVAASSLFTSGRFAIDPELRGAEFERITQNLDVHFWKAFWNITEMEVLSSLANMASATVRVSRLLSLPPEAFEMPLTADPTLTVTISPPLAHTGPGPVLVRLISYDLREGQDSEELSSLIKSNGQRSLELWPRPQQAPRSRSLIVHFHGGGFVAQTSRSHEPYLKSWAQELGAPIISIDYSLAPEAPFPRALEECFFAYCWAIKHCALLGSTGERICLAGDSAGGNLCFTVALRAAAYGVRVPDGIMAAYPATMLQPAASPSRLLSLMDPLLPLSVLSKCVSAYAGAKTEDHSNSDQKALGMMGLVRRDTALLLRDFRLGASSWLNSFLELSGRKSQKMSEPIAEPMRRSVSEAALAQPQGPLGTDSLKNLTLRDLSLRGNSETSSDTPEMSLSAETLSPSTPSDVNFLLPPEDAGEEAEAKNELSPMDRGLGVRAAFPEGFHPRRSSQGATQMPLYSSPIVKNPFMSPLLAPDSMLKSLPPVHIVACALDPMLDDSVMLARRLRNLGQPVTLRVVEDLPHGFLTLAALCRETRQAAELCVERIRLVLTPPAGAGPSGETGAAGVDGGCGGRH
TEST DESCRIPTION: Human Hormone-Sensitive Lipase (HSL) Enzyme Inhibition Assay
APPLIED CONDITIONS: colorimetric assay, 2,3-dimercapto-1-propanol tributyrate (DMPT) substrate, 37° C. for 20 minutes, absorbance at 405 nm; read-out: HSL hum IC50
MEASURED METRIC: IC50
Hey, just the number and the unit after it is fine.

| COMPOUND | MEASURED METRIC | REPORTED RESULT |
| --- | --- | --- |
| CC(Oc1ccc(N2CCC3(CCN(C(=O)C4(C)CC4(Cl)Cl)CC3)C2=O)cc1)C(F)(F)F (stereo not shown) | IC50 | 0.14 µM |
| O=C1N(c2ccc(OCC(F)(F)F)nc2)CCC12CCN(S(=O)(=O)c1ccccc1Cl)CC2 | IC50 | 0.05 µM |
| CC(C)(C)CS(=O)(=O)N1CCC2(CCN(c3ccc(OS(C)(=O)=O)cc3)C2=O)CC1 | IC50 | 0.11 µM |
| O=C1N(c2ccc(CC(F)(F)F)cc2)CCC12CCN(S(=O)(=O)c1ccc(F)cc1C(F)(F)F)CC2 | IC50 | 0.09 µM |
| COC(=O)c1ccc(N2CCC3(CCN(S(=O)(=O)c4ccccc4Cl)CC3)C2=O)cc1 | IC50 | 0.04 µM |

State the recorded IC50 for every item in the following list.
1. CCC(C)Oc1ccc(N2CCC3(CCN(S(=O)(=O)CC(C)C)CC3)C2=O)cc1 (stereo not shown)
2. O=C1N(CCc2ccc(F)cc2)CCC12CCN(S(=O)(=O)c1ccccc1Cl)CC2
3. CN(C(=O)N1CCC2(CC1)CCN(c1ccc(OC(F)(F)F)cc1)C2=O)c1cccc(Cl)c1
4. Cn1nccc1S(=O)(=O)N1CCC2(CCN(c3ccc(OC(F)(F)F)cc3)C2=O)CC1
5. COCC(C)(C)c1ccc(N2CCC3(CCN(S(=O)(=O)c4ccccc4OC(F)(F)F)CC3)C2=O)cc1
6. Cc1ccc(S(=O)(=O)N2CCC3(CCN(c4ccc(OC(F)(F)F)cc4)C3=O)CC2)s1
7. O=C1N(CCCc2ccccc2)CCC12CCN(S(=O)(=O)c1ccccc1Cl)CC2

1. 0.1 µM
2. 0.06 µM
3. 0.04 µM
4. 0.04 µM
5. 0.03 µM
6. 0.04 µM
7. 0.09 µM

State the recorded IC50 for every item in the following list.
1. CC(C)(C)CC(=O)N1CCC2(CC1)CCN(c1ccc(CC(F)(F)F)cc1)C2=O
2. CCN(CCc1ccccn1)C(=O)N1CCC2(CC1)CCN(c1ccc(OC(F)(F)F)cc1)C2=O
3. Nc1ncccc1S(=O)(=O)N1CCC2(CCN(c3ccc(OC(F)(F)F)cc3)C2=O)CC1
4. Cc1ccc(S(=O)(=O)N2CCC3(CCN(c4ccc(OC(F)(F)F)cc4)C3=O)CC2)nn1

1. 0.08 µM
2. 0.15 µM
3. 0.08 µM
4. 0.14 µM
